# method-description: Clearance in rat at 2 mg/kg, iv
# Format: ADME, organism-based
# condition-notes: in vivo
quantity-kind: clearance (mL/min/kg)

These recorded examples may help you get a feel for the data.
O=C(c1cccc2[nH]ncc12)N1CCC(F)(F)[C@@H](Oc2ccc3ccccc3n2)C1    87.5
O=C(c1cccn2cncc12)N1CCC(F)(F)[C@@H](Oc2ccc3ccccc3n2)C1    75
O=C(c1cccc2[nH]cnc12)N1CCC(F)(F)[C@@H](Oc2ccc3ccccc3n2)C1    69

1: O=C(c1cccc(-n2ccnn2)c1)N1CCC(F)(F)[C@@H](Oc2ccc3ccccc3n2)C1
2: O=C(c1nccc2[nH]cnc12)N1CCC(F)(F)[C@@H](Oc2ccc3ccccc3n2)C1
IN: Would you mind telling me which has the lower recorded clearance between 1 and 2 ? Reply with the label of the item you choose.
OUT: 2
(2: 45 mL/min/kg, 1: 81 mL/min/kg)
